Values were extracted from ChEMBL document CHEMBL4689842.

# Tested on: Fibroblast
# assayName: Multiplex assay against human fibroblast
# Format: toxicity, cell-based
# protocolConditions: 12 h, 1 µM, compound concentration 1 uM, replicate 1
Each entry below carries its recorded Population Tubulin-Different-Phenotype (%).
API: value field is a number in %; no unit string.

Guide cases for Population Tubulin-Different-Phenotype (%), answers given:
# lineNotation, measValue
data = [
    ("COC(=O)C1=C(C)NC(C)=C(C(=O)OCCCN2CCC(c3ccccc3)(c3ccccc3)CC2)[C@H]1c1cccc([N+](=O)[O-])c1", 100),
    ("C=CC(=O)Nc1cccc(Sc2nc(Nc3ccc(N4CCN(C)CC4)cc3)ncc2Cl)c1", 50),
    ("CNC(=O)Nc1ccc(-c2nc(N3CC4CCC(C3)O4)c3cnn(C4CCC5(CC4)OCCO5)c3n2)cc1", 54),
    ("C[C@]12CC[C@@H]3c4ccc(O)cc4CC[C@H]3[C@@H]1CC[C@@H]2O", 46),
    ("CC(C)CC(=O)Nc1[nH]nc2c1CN(C(=O)C1CCN(C)CC1)C2(C)C", 4),
    ("O=c1[nH]c2ccccc2n1C1CCN(Cc2ccc(-c3[nH]c4cc5ncnc5cc4nc3-c3ccccc3)cc2)CC1", 18),
    ("CC(C)OC(=O)N1CCC(Oc2ncnc3c2cnn3-c2ccc(S(C)(=O)=O)cc2F)CC1", 24),
]

Consider the record given below.
### Prompt Endpoint output: Population Tubulin-Different-Phenotype (%) of CCCSc1nc(N[C@@H]2C[C@H]2c2ccc(F)c(F)c2)c2nnn([C@@H]3C[C@H](OCCO)[C@@H](O)[C@H]3O)c2n1 . Value?
### Response 46

---

# System: U2OS
# assayName: Multiplex assay against U2OS
# Assay type: toxicity, cell-based
# protocolConditions: human, 24 h, 10 µM, compound concentration 10 uM, replicate 2
// assign true if Population Fragmented Nuclei (%) falls strictly below 10%, else false (ties count as false)

Examples from the recorded data:
# lineNotation, assignedClass
records = [
    ("COc1cc(Nc2nccc(-c3cnn4nc(OC)ccc34)n2)cc(C(F)(F)F)c1", "false"),
    ("CC(C)c1noc(N2CCC(COc3ccc(-c4ccc(S(C)(=O)=O)cc4)nc3)CC2)n1", "true"),
    ("O=c1cc(N2CCOCC2)oc2c(-c3cccc4c3sc3ccccc34)cccc12", "false"),
    ("Cc1c[nH]c2nccc(Oc3c(F)cc(Nc4cc(Cl)nc(N)n4)cc3F)c12", "false"),
]

Here's the next entry for you.
### Prompt Does the reported Population Fragmented Nuclei (%) of CC(C)OC(=O)N1CCC(Oc2ncnc3c2cnn3-c2ccc(S(C)(=O)=O)cc2F)CC1 stay below 10%?
### Response true

---

# System: HEK-293T
# assayName: Multiplex assay against HEK293T
# Assay type: toxicity, cell-based
# protocolConditions: human, 12 h, 1 µM, compound concentration 1 uM, replicate 2
experimentalReadout: Population Apoptotic (%)
Numbers only here, please. The scale is %.

### Prompt Provide value of Population Apoptotic (%) for this record tested with HEK-293T: Cc1ccccc1C(c1ccccc1C)N1C2CCC1CC(O)(c1ccccc1)C2 (stereo not drawn)
### Response 13

### Prompt Write down the reported Population Apoptotic (%) of CC(C)NC(=O)N1CC[C@H](NC2=Nc3cc(F)ccc3N(CC(F)F)c3ccc(Cl)cc32)C1 , test system: HEK-293T.
### Response 8

### Prompt Please tell me: Population Apoptotic (%) of C=CC(=O)Nc1cccc(Sc2nc(Nc3ccc(N4CCN(C)CC4)cc3)ncc2Cl)c1 , system HEK-293T?
### Response 20

### Prompt Query Population Apoptotic (%) on HEK-293T for O=c1cc(N2CCOCC2)oc2c(-c3cccc4c3sc3ccccc34)cccc12
### Response 14

### Prompt Provide value of Population Apoptotic (%) for this record tested with HEK-293T: CC(C)Oc1ccccc1C(=O)Nc1ccccc1C(=O)Nc1cccc(S(=O)(=O)C(F)(F)F)c1
### Response 34

### Prompt Form entry - test system: HEK-293T; read-out: Population Apoptotic (%); compound: CC(C)(C)NC[C@H](O)COc1nsnc1N1CCOCC1 [TIMOLOL]
### Response 12

### Prompt Query for HEK-293T: what Population Apoptotic (%) does the record show for Cl.O=C(O)c1cc(-c2ccc(C3CCNCC3)cc2)c2ccc(-c3ccc(C(F)(F)F)cc3)cc2c1 ?
### Response 6

### Prompt Entry COc1cc(Nc2nccc(-c3cnn4nc(OC)ccc34)n2)cc(C(F)(F)F)c1 , system HEK-293T: what Population Apoptotic (%) was measured?
### Response 7
